Values were extracted from patent US20250188176A1.

Could you please report measured kon for the items listed next?
Target: T1, Extracellular domain (ECD) of the canine IL-4 receptor alpha-V5 epitope-AviTag-His Tag (canine)
T1 construct: monomeric form isolated by size exclusion; also called canine IL-4RA-V5-Avi-His; canine IL-4RA
T1 chain: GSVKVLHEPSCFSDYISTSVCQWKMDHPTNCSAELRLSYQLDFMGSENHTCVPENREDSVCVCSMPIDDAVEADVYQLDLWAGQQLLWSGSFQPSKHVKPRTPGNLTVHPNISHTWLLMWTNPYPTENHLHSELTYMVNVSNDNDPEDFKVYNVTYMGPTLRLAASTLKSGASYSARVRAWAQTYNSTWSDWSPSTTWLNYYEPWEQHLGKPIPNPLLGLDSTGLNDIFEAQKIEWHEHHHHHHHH
Test: SPR, Fab-SASA captured on BSA;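 further: biacore T200 SPR, Fab-SASA variants from E. coli conditioned medium captured on BSA-coated CM5 chip, canine IL-4RA injected 120 s then 420 s dissociation, 1:1 model fit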
Please respond with the number in M⁻¹ s⁻¹ and leave the unit unwritten.

Ask | For the binder shown here, TB640_005 Fab-SASA VL-Q27H (Fab, V domains shown, not shown: SASA tag then His-tag) VH: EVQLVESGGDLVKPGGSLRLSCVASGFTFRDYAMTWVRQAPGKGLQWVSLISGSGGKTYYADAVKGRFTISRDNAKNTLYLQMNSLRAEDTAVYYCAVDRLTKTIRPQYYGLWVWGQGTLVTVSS VL: DIVMTQTPLSLSVSPGETASISCRSSHSLLYSIGYNYLDWYLQKPGQSPQGLIYLGSKRASGVPDRFSGSGSGTDFTLRISRVEANDTGVYYCMQGLQSPLTFGQGTKLEIKR , give the reported kon.
Reply | 65700

Ask | Given the binder TB640_005 Fab-SASA VL-L101N (Fab, V domains shown, not shown: SASA tag then His-tag) VH: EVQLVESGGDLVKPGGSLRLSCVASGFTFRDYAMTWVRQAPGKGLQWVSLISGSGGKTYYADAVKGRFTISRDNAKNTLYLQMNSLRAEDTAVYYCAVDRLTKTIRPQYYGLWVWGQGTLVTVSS VL: DIVMTQTPLSLSVSPGETASISCRSSQSLLYSIGYNYLDWYLQKPGQSPQGLIYLGSKRASGVPDRFSGSGSGTDFTLRISRVEANDTGVYYCMQGLQSPNTFGQGTKLEIKR , what is its reported kon?
Reply | 328000

Ask | State the recorded kon for this entry: TB640_005 Fab-SASA VL-I33A (Fab, V domains shown, not shown: SASA tag then His-tag) VH: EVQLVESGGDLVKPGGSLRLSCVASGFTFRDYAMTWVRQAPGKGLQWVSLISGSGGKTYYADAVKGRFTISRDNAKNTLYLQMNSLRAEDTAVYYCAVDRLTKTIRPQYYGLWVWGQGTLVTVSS VL: DIVMTQTPLSLSVSPGETASISCRSSQSLLYSAGYNYLDWYLQKPGQSPQGLIYLGSKRASGVPDRFSGSGSGTDFTLRISRVEANDTGVYYCMQGLQSPLTFGQGTKLEIKR
Reply | 75900
